test system: OVCAR-4 ovarian; assay: NCI tumour cell line growth inhibition, 48 h
PROPERTY: GI50

Observe how each entry below is paired with its result.
- CHEM_SMILES: "CCOC(=O)Nc1nc2cc(OCC)ccc2s1"
  GI50: "> 100 µM"
- CHEM_SMILES: "CC[C@H](Nc1nc(N)nc(C2CC2)c1C#N)c1nc2cccc(NCc3ccc(C(=O)NO)cc3)c2c(=O)n1-c1ccccc1"
  GI50: "2.6 µM"
- CHEM_SMILES: "C/C(=C(/c1ccc(O)cc1)c1ccc(Cl)cc1)c1ccccc1"
  GI50: "0.66 µM"

IN: Given the compound `CC(=O)c1cccc(-c2cccc(-c3ccn(CCN4CCOCC4)n3)c2)c1` , what is its reported GI50?
OUT: > 20 µM

Data provenance is PubChem BioAssay (NCI).
